Test: NCI Yeast Anticancer Drug Screen. Data for the mlh1 rad18 strain (AID 175)
Settings: S. cerevisiae mlh1 rad18 strain growth inhibition; at 50.0 µM; active compounds read high
Procedure: Growth inhibition of yeast strains with defined genetic alterations is measured as a screen for potential anti-cancer activity. Selected strains with alterations in DNA damage repair or cell cycle control were exposed to compounds and growth inhibition was measured relative to vehicle treated controls. The strain used in this assay is mlh1 rad18
The panel holds about 79,000 compounds, 15% with a hit somewhere; the sample as a whole holds those more often.
Please map values of growth inhibition to classes as shown: band A: < 10%; band B: ≥ 10% and < 40%; band C: ≥ 40%

Reference set (5 entries):
{"COMPOUND": "CC12OC(=O)CC1C(c1ccccc1)(c1ccccc1)O2 (stereo not drawn)", "CAT": "band A"}
{"COMPOUND": "O=NN(Cc1ccc(Cl)cc1)NC1=NCCN1", "CAT": "band B"}
{"COMPOUND": "CC(=O)c1cc2c(cc1C)C(C)(C)CCC2", "CAT": "band B"}
{"COMPOUND": "Cc1ccc(O)c(C)n1", "CAT": "band A"}
{"COMPOUND": "CC(=O)/C(=C/n1ccc(=O)[nH]c1=S)C(=O)Nc1ccc([N+](=O)[O-])cc1", "CAT": "band A"}

Request: Just checking, what class would you give CC1C=CCC2C(=O)OC(=O)C12 (stereo not drawn) here?
Response: band B

Request: Also, CCOC(=O)Cn1cnc2sc3c(c2c1=O)CCCC3 please.
Response: band B

Request: Also, Cc1ccc(S(=O)(=O)O/C=C2/CCOC2=O)cc1 please.
Response: band C

Request: Also, Cc1nc2ccccc2nc1CC(=O)c1ccccc1 please.
Response: band C

Request: Also, C=CCCCCCCCCCCC please.
Response: band A

Request: Also, COC(=O)Cc1nc2ccccc2o1 please.
Response: band B

====

Listed below: growth inhibition values for each entry.
Assay: NCI Yeast Anticancer Drug Screen. Data for the cln2 rad14 strain (AID 165);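 also: 0% = growth equal to vehicle treated cultures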
Settings: S. cerevisiae cln2 rad14 strain, at 50.0 µM, active compounds read high
About 79,000 compounds went through this panel and 15% of them were active in at least one assay; those are over-represented in the sample as a whole. Where a SMILES comes first, the peptide text is derived from it.
Provide the reading as a plain figure in %.

Solved entries (count: 5):
{"COMPOUND": "CC12CCC(C/C1=N\\N=C(N)N)C2(C)C (stereo not drawn)", "METRIC": "growth inhibition", "RECORDED_RESULT": -36.9}
{"COMPOUND": "COC1OC2COC(C2O)C1OS(=O)(=O)c1ccc(C)cc1 (stereo not drawn)", "METRIC": "growth inhibition", "RECORDED_RESULT": -46.1}
{"COMPOUND": "O=C(O)C1C=CCN1 (stereo not drawn)", "METRIC": "growth inhibition", "RECORDED_RESULT": -6.55}
{"COMPOUND": "CC(C)C(=O)OCc1ccc(Cl)cc1", "METRIC": "growth inhibition", "RECORDED_RESULT": 12.1}
{"COMPOUND": "N#CC(=Nc1ccccc1N(C(=O)c1ccccc1)C(=O)c1ccccc1)c1ccccc1", "METRIC": "growth inhibition", "RECORDED_RESULT": 2.95}

Request: # query: growth inhibition of entry CCC(C)C(N)C(=O)NC(Cc1ccc(O)cc1)C(=O)O (stereo not drawn) (H-Ile-Tyr-OH; configuration not given here)
Response: 15.8

====

Listed below: growth inhibition values for each entry.
Test: NCI Yeast Anticancer Drug Screen. Data for the rad50 strain (AID 155);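 also: 0% = growth of vehicle-only cultures of the same strain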
Conditions: S. cerevisiae rad50 strain growth inhibition; at 50.0 µM; active compounds read high
The panel holds about 79,000 compounds, 15% with a hit somewhere; the sample as a whole holds those more often.
Provide the reading as a plain figure in %.

Solved entries (count: 4):
{"MOLECULE": "CCCC(=O)c1ccc(=O)n(C)c1", "READING_UNIT": "%", "RECORDED_RESULT": 18.2}
{"MOLECULE": "N#Cc1ccc[n+]([O-])c1", "READING_UNIT": "%", "RECORDED_RESULT": -8.8}
{"MOLECULE": "Cc1ccc2nnc(C)n2c1", "READING_UNIT": "%", "RECORDED_RESULT": 10.7}
{"MOLECULE": "CN1C=CCC(C=O)C1 (configuration not stated)", "READING_UNIT": "%", "RECORDED_RESULT": -13.5}

Request: # query: growth inhibition of entry Nc1nnc2nc(CC(=O)c3ccc4ccccc4c3)c(=O)[nH]n12
Response: -1.85

Request: Also, O=[N+]([O-])C(Cl)C(Cl)C(Cl)=C(Cl)Cl (configuration not stated) please.
Response: 23.9

Request: Also, Nc1ncnc2c1nnn2C1CCC(CP(=O)(O)O)C1 (configuration not stated) please.
Response: 8.05

====

Assay: NCI Yeast Anticancer Drug Screen. Data for the rad50 strain (AID 155);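 also: 0% = growth of vehicle-only cultures of the same strain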
Conditions: S. cerevisiae rad50 strain growth inhibition; at 50.0 µM; active compounds read high
Compounds without any hit were thinned out: in the full panel of roughly 79,000, 15% have a hit.
METRIC: growth inhibition (%)
Provide the reading as a plain figure in %.

{"COMPOUND": "Cc1ccc(S(=O)(=O)c2ccccn2)cc1", "growth inhibition, %": -37.2}

Request: # query: growth inhibition of entry CC(C)CCC[C@@H](C)[C@H]1CC[C@H]2[C@@H]3CC=C4C[C@@H]([n+]5ccccc5)CC[C@]4(C)[C@H]3CC[C@]12C
Response: -2.45

====

Listed below: growth inhibition values for each entry.
Assay: NCI Yeast Anticancer Drug Screen. Data for the bub3 strain (AID 167)
Details: S. cerevisiae bub3 mutant strain, at 50.0 µM, active compounds read high
Compounds without any hit were thinned out: in the full panel of roughly 79,000, 15% have a hit.
Provide the reading as a plain figure in %.

{"COMPOUND": "Cc1cc(Cl)ccc1OCCCC(=O)NC(Cc1c[nH]c2ccccc12)C(=O)O (configuration not stated)", "RECORDED_RESULT": -2.4}
{"COMPOUND": "COC(=O)C1(F)C(=O)NC(=O)NC1OC (configuration not stated)", "RECORDED_RESULT": 11.7}

Request: # query: growth inhibition of entry O=C1c2c(nc3ccccc3c2-c2ccccc2)CN1Nc1ccccn1
Response: -5.7

Request: Also, O=P1(c2ccccc2)OCC2=C(c3ccccc3)CC2=C1c1ccccc1 (configuration not stated) please.
Response: -2.05

Request: Also, O=[N+]([O-])c1cc(Br)ccc1P(=O)(O)O please.
Response: 16.9

Request: Also, CC(=O)Oc1ccc2ccccc2c1CS(=O)(=O)O please.
Response: 3.35

Request: Also, CCOC(=O)C1CCCc2sc(N)c(C#N)c21 (configuration not stated) please.
Response: 3.15

Request: Also, O=S(=O)(Nc1cccc(C2=NCCN2)c1)c1cccc2c(S(=O)(=O)Nc3cccc(C4=NCCN4)c3)cccc12 please.
Response: -12.2

Request: Also, CCCC1C(CC)C(NC)C(C#N)(C#N)C1(C#N)C#N (configuration not stated) please.
Response: 8.3

Request: Also, Cc1cc(N(CCC#N)CCC#N)ccc1/C=C(\NC(=O)/C=C/c1ccccc1)C(N)=O please.
Response: -33.1

Request: Also, CCOC(=O)NC(Nc1ncccn1)(C(=O)OCC)C(F)(F)F (configuration not stated) please.
Response: -39.8

Request: Also, O=[N+]([O-])c1ccc(N=C/C=C\Nc2ccc([N+](=O)[O-])cc2)cc1 please.
Response: 6.85

Request: Also, CCc1ccccc1NC(=O)COc1ccc(Cl)cc1 please.
Response: 34.2

Request: Also, CC(=O)OCC1OC(OC(C)=O)C(NC(=O)C[NH-])C(OC(C)=O)C1OC(C)=O.CC(=O)OCC1OC(OC(C)=O)C(NC(=O)C[NH-])C(OC(C)=O)C1OC(C)=O.[Cl][Pt+2][Cl] (configuration not stated) please.
Response: 1.7

Request: Also, Cc1cc(CC#N)c(CC#N)cc1C please.
Response: -3.95

====

Assay: NCI Yeast Anticancer Drug Screen. Data for the sgs1 mgt1 strain (AID 161);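 also: 0% = growth of cultures given vehicle only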
Settings: S. cerevisiae sgs1 mgt1 strain, at 50.0 µM, active compounds read high
This is part of a sample that, as a whole, favours compounds with a hit. Of some 79,000 tested, about 15% had one in any assay.
METRIC: growth inhibition (%)
Provide the reading as a plain figure in %.

Solved entries (count: 3):
{"COMPOUND": "CC(=O)Nc1ccc(/C=N/NC(=S)Nc2cccc3cccnc23)cc1", "METRIC": "growth inhibition", "RECORDED_RESULT": -5}
{"COMPOUND": "CC(C)C(=O)OCC1OC(n2cnc3c(=S)nc[nH]c32)C(OC(=O)C(C)C)C1OC(=O)C(C)C (stereo unspecified)", "METRIC": "growth inhibition", "RECORDED_RESULT": 2.4}
{"COMPOUND": "Cc1n[nH]c(=O)n1Nc1ccccc1", "METRIC": "growth inhibition", "RECORDED_RESULT": 9.1}

Request: # query: growth inhibition of entry O=S1(=O)CC2C3CC(Oc4ccccc4)C(C3)C2C1 (stereo unspecified)
Response: -4.2

Request: Also, Cc1ccc(S(=O)(=O)N2CCC[C@@H]2C(=O)O[C@@H]2CCC3CC=CC32)cc1 (stereo partly specified) please.
Response: 10.2

Request: Also, COc1cc(NC(C)CNC(C)C)c2ncccc2c1 (stereo unspecified) please.
Response: -2.1

Request: Also, CCOC(=O)/C(C#N)=C/c1ccccc1OC please.
Response: 31.9

Request: Also, O=[N+]([O-])c1ccc(CC(Cl)c2ccccn2)cc1 (stereo unspecified) please.
Response: 19.1

Request: Also, CCCCCCCCCCCCCCCC(=O)OC/C=C/COC(=O)c1ccccc1 please.
Response: -6.25

Request: Also, COc1nc(NC2OC(COC(C)=O)C(OC(C)=O)C(OC(C)=O)C2OC(C)=O)c(-c2csc(N)n2)c(=O)n1C (stereo unspecified) please.
Response: -18.8

Request: Also, CC(C)NC1(C#N)CCN(Cc2ccccc2)CC1 please.
Response: -41.4
